target.or.system: Kappa-type opioid receptor (Homo sapiens)
Sequence (P41145 whole entry): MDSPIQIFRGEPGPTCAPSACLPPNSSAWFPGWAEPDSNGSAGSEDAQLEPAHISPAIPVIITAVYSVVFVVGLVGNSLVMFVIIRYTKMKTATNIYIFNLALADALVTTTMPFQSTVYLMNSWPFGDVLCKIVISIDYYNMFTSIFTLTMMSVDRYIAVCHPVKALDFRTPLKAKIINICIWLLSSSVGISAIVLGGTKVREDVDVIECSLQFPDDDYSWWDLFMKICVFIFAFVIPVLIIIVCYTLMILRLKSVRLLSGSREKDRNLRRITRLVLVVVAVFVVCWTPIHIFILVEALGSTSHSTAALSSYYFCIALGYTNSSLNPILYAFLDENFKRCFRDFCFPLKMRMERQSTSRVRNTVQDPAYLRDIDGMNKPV
assay.method.text: Agonist activity at recombinant human kappa-type opioid receptor expressed in HEK293 cells after 30 mins by [35S]GTPgammaS binding assay
Please go through the items and note down their pEC50.
Recall that pEC50 is obtained by taking minus log10 of the concentration measured in molar.

For `CC(C)OC(=O)CN1CCN(C(=O)Cc2ccc(Cl)c(Cl)c2)[C@@H]2[C@@H](N3CCCC3)CCC[C@@H]21` on Kappa-type opioid receptor (Homo sapiens), measured pEC50 was 8.30

For `COC(=O)N1CCN(C(=O)Cc2ccc(F)c(Cl)c2)[C@@H]2[C@@H](N3CC[C@H](O)C3)CCC[C@@H]21` on Kappa-type opioid receptor (Homo sapiens), measured pEC50 was 8.66

For `CN(C)S(=O)(=O)N1CCN(C(=O)Cc2ccc(Cl)c(Cl)c2)[C@@H]2[C@@H](N3CCCC3)CCC[C@@H]21` on Kappa-type opioid receptor (Homo sapiens), measured pEC50 was 8.66

For `COC(=O)N1CCN(C(=O)Cc2ccc(Cl)c(F)c2)[C@@H]2[C@@H](N3CC[C@H](O)C3)CCC[C@@H]21` on Kappa-type opioid receptor (Homo sapiens), measured pEC50 was 8.41

For `CC(C)NC(=O)N1CCN(C(=O)Cc2ccc(Cl)c(Cl)c2)[C@@H]2[C@@H](N3CCCC3)CCC[C@@H]21` on Kappa-type opioid receptor (Homo sapiens), measured pEC50 was 8.35

For `CS(=O)(=O)N1CCN(C(=O)Cc2ccc(Cl)c(F)c2)[C@@H]2[C@@H](N3CC[C@H](O)C3)CCC[C@@H]21` on Kappa-type opioid receptor (Homo sapiens), measured pEC50 was 8.10

For `COC(=O)N1CCN(C(=O)Cc2ccc(Cl)c(Cl)c2)[C@@H]2[C@@H](N3CC[C@@H](O)C3)CCC[C@@H]21` on Kappa-type opioid receptor (Homo sapiens), measured pEC50 was 8.33

---

assay.method.text: Plasma concentration in Wistar Han rat at 5 mg/kg, iv measured 1 hr post compound administration
Format: ADME, organism-based
observed.property: concentration at 1 h (ng/mL)
Field format: number, assumed ng/mL, no unit text.

# concentration at 1 h of `COC(=O)N1CCN(C(=O)Cc2ccc(Cl)c(F)c2)[C@@H]2[C@@H](N3CC[C@H](O)C3)CCC[C@@H]21.Cl` = 546

# concentration at 1 h of `COC(=O)N1CCN(C(=O)Cc2ccc(F)c(F)c2)[C@@H]2[C@@H](N3CC[C@H](O)C3)CCC[C@@H]21.Cl` = 392

# concentration at 1 h of `COC(=O)N1CCN(C(=O)Cc2ccc(F)c(Cl)c2)[C@@H]2[C@@H](N3CC[C@H](O)C3)CCC[C@@H]21.Cl` = 465

# concentration at 1 h of `CS(=O)(=O)N1CCN(C(=O)Cc2ccc(F)c(Cl)c2)[C@@H]2[C@@H](N3CC[C@H](O)C3)CCC[C@@H]21.Cl` = 356

# concentration at 1 h of `CN(C)S(=O)(=O)N1CCN(C(=O)Cc2ccc(Cl)c(Cl)c2)[C@@H]2[C@@H](N3CCCC3)CCC[C@@H]21.Cl` = 560

# concentration at 1 h of `COC(=O)N1CCN(C(=O)Cc2cccc(Cl)c2)[C@@H]2[C@@H](N3CC[C@H](O)C3)CCC[C@@H]21.Cl` = 414

# concentration at 1 h of `CS(=O)(=O)N1CCN(C(=O)Cc2ccc(Cl)c(F)c2)[C@@H]2[C@@H](N3CC[C@H](O)C3)CCC[C@@H]21.Cl` = 437
